Molecular target: hNET (Homo sapiens, UniProt P23975)
Construct: expressed in transfected cells; host or cells: HEK cells expressing hNET
Sequence (P23975 whole entry): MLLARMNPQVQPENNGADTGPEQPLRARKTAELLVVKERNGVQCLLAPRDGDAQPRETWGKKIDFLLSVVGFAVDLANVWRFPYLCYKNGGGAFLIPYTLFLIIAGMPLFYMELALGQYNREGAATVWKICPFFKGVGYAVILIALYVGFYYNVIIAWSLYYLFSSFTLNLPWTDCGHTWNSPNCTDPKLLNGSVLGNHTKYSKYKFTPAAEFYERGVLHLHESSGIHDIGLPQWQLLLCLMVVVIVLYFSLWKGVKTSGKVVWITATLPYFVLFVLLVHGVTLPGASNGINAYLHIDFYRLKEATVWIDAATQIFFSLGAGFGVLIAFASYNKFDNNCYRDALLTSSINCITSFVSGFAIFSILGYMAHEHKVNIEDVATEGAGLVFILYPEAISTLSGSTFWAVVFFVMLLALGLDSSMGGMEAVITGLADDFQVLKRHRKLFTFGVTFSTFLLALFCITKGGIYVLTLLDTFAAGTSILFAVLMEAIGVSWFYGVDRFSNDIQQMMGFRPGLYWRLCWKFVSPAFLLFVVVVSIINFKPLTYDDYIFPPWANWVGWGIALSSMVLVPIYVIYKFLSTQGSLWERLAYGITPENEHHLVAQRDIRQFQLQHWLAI
Assay: [3H]NE uptake in HEK-hNET cells
Assay type: cell-based
Settings: Table II; read-out: [3H]NE Uptake in HEK-hNET cells IC50 (nM) sem
measureName: IC50 (nM)

>>> observedmeasurement("O=C(O)C(/C=C/c1ccccc1)N1CCC(c2ccccc2)CC1 (stereo not drawn)")
204
>>> observedmeasurement("c1ccc(CCCN2CCN(CCOC(c3ccccc3)c3ccccc3)CC2)cc1 [GBR-12935, reference compound]")
165
>>> observedmeasurement("O=C(O)C(/C=C/c1ccccc1)N1CCN(CCOC(c2ccccc2)c2ccccc2)CC1 (stereo not drawn)")
2200
>>> observedmeasurement("O=C(O)C(/C=C/c1ccccc1)C1CCN(CCOC(c2ccc(F)cc2)c2ccc(F)cc2)CC1 (stereo not drawn)")
117
>>> observedmeasurement("O=C(O)C(/C=C/c1ccccc1)C1CCN(CCOC(c2ccccc2)c2ccccc2)CC1 (stereo not drawn)")
113
>>> observedmeasurement("CN(C)C(=O)C(/C=C/c1ccccc1)N1CCC(c2ccccc2)CC1 (stereo not drawn)")
211

###

Molecular target: hNET (Homo sapiens, UniProt P23975)
Construct: expressed in transfected cells; host or cells: HEK cells expressing hNET
Experiment: [125I]RTI-55 binding in HEK-hNET membranes
Settings: Table II; read-out: [125I]RTI-55 Binding in HEK-hNET Membranes KI (nM) sem
measureName: Ki (nM)

>>> observedmeasurement("c1ccc(CCCN2CCN(CCOC(c3ccccc3)c3ccccc3)CC2)cc1 [GBR-12935, reference compound]")
628
>>> observedmeasurement("O=C(O)C(/C=C/c1ccccc1)C1CCN(CCOC(c2ccc(F)cc2)c2ccc(F)cc2)CC1 (stereo not drawn)")
4540
>>> observedmeasurement("O=C(O)C(/C=C/c1ccccc1)NC1CCc2ccccc21 (stereo not drawn)")
2920

###

Biological target: human dopamine transporter (hDAT) (Homo sapiens)
Construct: expressed in transfected cells; host or cells: HEK-293 cells stably expressing recombinant hDAT
Sequence (Q01959 whole entry): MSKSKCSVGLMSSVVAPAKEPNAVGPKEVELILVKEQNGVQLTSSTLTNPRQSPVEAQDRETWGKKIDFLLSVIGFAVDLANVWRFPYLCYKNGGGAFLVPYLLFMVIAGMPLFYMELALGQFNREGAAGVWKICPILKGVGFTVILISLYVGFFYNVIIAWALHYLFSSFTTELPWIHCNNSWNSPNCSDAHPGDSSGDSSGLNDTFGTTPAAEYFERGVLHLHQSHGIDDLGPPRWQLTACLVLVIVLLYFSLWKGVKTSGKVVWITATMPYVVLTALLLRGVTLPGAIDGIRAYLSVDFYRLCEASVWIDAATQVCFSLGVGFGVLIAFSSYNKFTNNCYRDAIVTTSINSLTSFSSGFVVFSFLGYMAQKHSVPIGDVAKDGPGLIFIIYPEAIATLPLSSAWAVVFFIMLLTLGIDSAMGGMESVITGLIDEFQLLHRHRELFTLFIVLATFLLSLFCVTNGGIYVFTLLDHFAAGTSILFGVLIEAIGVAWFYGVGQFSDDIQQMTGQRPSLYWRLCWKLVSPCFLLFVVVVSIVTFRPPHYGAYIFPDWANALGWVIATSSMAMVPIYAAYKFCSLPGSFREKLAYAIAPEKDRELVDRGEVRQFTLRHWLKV
Test: [125I]RTI-55 binding to human dopamine transporter in HEK-293 hDAT membranes
Conditions: Table 1; [125I]RTI-55 binding, HEK-293 hDAT membranes
This section presents compounds with their documented Hill Coefficient values.
measureName: Hill Coefficient

>>> observedmeasurement("O=C(O)C(/C=C/c1ccccc1)C1CCN(CCOC(c2ccccc2)c2ccccc2)CC1 (stereo not drawn) [ZHN-92]")
"−1.2"
>>> observedmeasurement("CN(C)C(=O)C(/C=C/c1ccccc1)N1CCC(c2ccccc2)CC1 (stereo not drawn) [RNH-Z-28]")
"−2.1"
>>> observedmeasurement("CN(CCC=C1c2ccccc2CCc2ccccc21)C(/C=C/c1ccccc1)C(=O)O (stereo not drawn) [RNH-Z-44]")
"−2.2"
>>> observedmeasurement("O=C(O)C(/C=C/c1ccccc1)C1CCN(CCOC(c2ccc(F)cc2)c2ccc(F)cc2)CC1 (stereo not drawn) [ZHN-93]")
"−1.0"
>>> observedmeasurement("O=C(O)C(/C=C/c1ccccc1)N1CCN(CCOC(c2ccccc2)c2ccccc2)CC1 (stereo not drawn) [ZHN-94]")
"−0.8"
>>> observedmeasurement("O=C(NCc1cccc2ccccc12)C(/C=C/c1ccccc1)N1CCC(c2ccccc2)CC1 (stereo not drawn) [RNH-Z-31]")
"−7.0"
